Molecular target: cathepsin L (Rattus norvegicus)
Construct: Capthesin L was purified from rat kidney; from tissue; host or cells: rat kidney
Sequence (P07154 114-288 limits assumed): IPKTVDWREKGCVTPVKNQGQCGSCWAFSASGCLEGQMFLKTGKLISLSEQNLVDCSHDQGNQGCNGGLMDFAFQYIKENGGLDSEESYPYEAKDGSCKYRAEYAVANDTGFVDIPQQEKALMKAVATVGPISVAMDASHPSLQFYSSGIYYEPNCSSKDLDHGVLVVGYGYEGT
Sequence (P07154 291-334 limits assumed): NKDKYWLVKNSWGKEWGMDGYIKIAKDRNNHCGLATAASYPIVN
Experiment: Thiol protease inhibitory activity against cathepsin L purified from rat kidney
Format: biochemical
Field: IC50. Provide a value for each of the compounds that follow.
Answers are plain numbers, in nM.

Compound: CCCC[C@H](NC(=O)[C@H](CC(C)C)NC(=O)OCC1CCCCC1)C(O)c1c(-c2ccc([Si](C)(C)C)o2)c1=O (some centres unmarked)
Experimental Target: cathepsin L (Rattus norvegicus)
Property Label: IC50
Unit Symbol: nM
Number: 580

Now examine the next entry.
Returns the measured IC50 for the input compound. Input: CCCC[C@H](NC(=O)[C@H](CC(C)C)NC(=O)OCC1CCCCC1)C(O)c1c(-c2ccc([Si](C)(C)C)s2)c1=O (some centres unmarked) 270

* * *

Target: m-calpain (Rattus norvegicus)
Construct: m-calpain was purified from rat brain; from tissue; host or cells: rat brain
Sequence (Q07009 20-700 limits assumed): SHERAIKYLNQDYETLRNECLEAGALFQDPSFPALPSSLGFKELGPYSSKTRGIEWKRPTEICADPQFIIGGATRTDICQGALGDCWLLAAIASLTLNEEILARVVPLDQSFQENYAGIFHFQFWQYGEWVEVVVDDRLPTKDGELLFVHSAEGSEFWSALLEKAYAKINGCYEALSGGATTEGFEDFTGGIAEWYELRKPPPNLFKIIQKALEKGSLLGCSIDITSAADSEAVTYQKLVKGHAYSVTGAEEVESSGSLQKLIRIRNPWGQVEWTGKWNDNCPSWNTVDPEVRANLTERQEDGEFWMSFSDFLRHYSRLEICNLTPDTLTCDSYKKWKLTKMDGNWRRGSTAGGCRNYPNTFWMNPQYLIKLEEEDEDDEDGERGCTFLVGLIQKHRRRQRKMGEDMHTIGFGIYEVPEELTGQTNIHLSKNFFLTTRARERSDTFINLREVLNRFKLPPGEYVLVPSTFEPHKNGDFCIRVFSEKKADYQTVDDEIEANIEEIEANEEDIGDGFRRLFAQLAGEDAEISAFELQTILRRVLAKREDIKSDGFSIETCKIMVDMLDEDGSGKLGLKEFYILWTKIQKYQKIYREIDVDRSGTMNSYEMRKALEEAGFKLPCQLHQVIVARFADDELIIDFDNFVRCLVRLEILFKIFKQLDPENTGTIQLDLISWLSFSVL
Sequence (Q64537 1-270 partner): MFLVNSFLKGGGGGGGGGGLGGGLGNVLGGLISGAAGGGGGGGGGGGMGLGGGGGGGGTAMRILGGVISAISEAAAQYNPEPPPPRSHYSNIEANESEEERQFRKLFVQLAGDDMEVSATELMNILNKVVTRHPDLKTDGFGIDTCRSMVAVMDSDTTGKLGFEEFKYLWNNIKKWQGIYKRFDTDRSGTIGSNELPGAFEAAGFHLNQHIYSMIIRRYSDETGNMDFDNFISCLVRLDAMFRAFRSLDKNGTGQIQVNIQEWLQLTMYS
Experiment: Thiol protease inhibitory activity against m-calpain purified from rat brain
Type: biochemical
Details: Table 4; rat brain enzyme; read-out: Inhibitory activity against m-calpain IC50
Field: IC50. Provide a value for each of the compounds that follow.
Give bare numbers, in nM.

Completed entries (count: 5):
Smiles Code: CCCS(=O)(=O)N[C@@H](CC(C)C)C(=O)N[C@@H](C(C)C)[C@@H](O)c1c(-c2ccccc2)c1=O
Experimental Target: m-calpain (Rattus norvegicus)
Number: 950

Smiles Code: CC(C)C[C@H](NS(=O)(=O)c1cccc2cccnc12)C(=O)N[C@@H](C(C)C)[C@@H](O)c1c(-c2ccccc2)c1=O
Experimental Target: m-calpain (Rattus norvegicus)
Number: 1900

Smiles Code: CC(C)C[C@H](NC(=O)OCC1CCCCC1)C(=O)N[C@@H](CC(C)C)C(=O)N[C@@H](C(C)C)[C@@H](O)c1c(-c2ccccc2)c1=O
Experimental Target: m-calpain (Rattus norvegicus)
Number: 840

Smiles Code: CC(C)C[C@H](NS(=O)(=O)c1ccc2ccccc2c1)C(=O)N[C@@H](C(C)C)[C@@H](O)c1c(-c2ccccc2)c1=O
Experimental Target: m-calpain (Rattus norvegicus)
Number: 460

Smiles Code: CC(C)C[C@H](NC(=O)Nc1ccccc1)C(=O)N[C@@H](C(C)C)[C@@H](O)c1c(-c2ccccc2)c1=O
Experimental Target: m-calpain (Rattus norvegicus)
Number: 4600

Now examine the next entry.
Returns the measured IC50 for the input compound. Input: `CC(C)C[C@H](NC(=O)NCc1ccccc1)C(=O)N[C@@H](C(C)C)[C@@H](O)c1c(-c2ccccc2)c1=O` 3300
